Target: SMARCA2 (Homo sapiens)
Sequence (P51531 whole entry): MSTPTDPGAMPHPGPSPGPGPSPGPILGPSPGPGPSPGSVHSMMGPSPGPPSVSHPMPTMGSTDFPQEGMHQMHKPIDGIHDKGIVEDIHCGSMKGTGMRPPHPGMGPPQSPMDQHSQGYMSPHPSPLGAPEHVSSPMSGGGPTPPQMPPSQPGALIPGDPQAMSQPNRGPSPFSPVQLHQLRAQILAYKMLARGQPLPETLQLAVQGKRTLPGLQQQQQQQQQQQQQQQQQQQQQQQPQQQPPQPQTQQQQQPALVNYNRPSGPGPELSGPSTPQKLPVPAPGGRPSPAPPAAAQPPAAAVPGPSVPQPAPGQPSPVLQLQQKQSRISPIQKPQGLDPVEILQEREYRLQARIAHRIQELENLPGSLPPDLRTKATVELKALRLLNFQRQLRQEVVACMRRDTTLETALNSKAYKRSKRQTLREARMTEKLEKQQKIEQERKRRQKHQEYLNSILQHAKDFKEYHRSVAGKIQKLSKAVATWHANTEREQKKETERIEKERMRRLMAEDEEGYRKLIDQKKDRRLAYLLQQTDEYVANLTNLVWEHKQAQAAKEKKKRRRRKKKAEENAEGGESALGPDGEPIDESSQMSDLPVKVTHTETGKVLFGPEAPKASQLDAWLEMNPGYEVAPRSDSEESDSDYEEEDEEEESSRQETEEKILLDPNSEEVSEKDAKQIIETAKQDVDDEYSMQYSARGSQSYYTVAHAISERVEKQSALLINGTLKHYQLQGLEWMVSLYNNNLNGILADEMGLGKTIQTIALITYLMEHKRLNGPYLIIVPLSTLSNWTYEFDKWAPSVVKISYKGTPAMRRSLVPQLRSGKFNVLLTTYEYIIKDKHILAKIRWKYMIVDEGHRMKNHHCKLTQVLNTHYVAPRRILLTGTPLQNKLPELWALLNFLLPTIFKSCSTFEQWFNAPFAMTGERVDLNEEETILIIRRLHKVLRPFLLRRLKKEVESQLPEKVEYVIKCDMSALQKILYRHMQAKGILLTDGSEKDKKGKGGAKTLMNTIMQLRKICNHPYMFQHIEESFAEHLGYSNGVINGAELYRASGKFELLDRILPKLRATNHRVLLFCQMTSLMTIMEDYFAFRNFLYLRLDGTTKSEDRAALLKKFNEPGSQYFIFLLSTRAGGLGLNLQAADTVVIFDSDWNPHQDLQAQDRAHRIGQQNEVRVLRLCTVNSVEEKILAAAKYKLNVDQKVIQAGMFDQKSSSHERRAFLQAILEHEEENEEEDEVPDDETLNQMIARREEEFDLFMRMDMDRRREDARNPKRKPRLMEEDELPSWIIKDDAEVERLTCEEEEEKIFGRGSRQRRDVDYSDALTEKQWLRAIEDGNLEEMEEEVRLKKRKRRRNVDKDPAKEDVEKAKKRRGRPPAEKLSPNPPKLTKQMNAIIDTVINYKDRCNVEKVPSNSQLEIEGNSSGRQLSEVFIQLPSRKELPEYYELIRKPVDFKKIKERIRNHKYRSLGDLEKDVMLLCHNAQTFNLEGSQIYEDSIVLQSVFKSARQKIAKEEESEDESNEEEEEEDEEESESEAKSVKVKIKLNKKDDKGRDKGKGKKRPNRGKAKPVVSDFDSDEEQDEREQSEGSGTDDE
Test: HiBit assay in engineered HT1080 CRISPR knock-in cell, 6 hrs (B series), SMARCA2
Format: cell-based
Settings: HT1080 CRISPR knock-in cells, 6 hrs incubation; read-out: SMARC A2 HT1080 HiBit DC50
Procedure: The HiBit assay was performed using engineered HT1080 CRISPR knock-in cell utilizing the Nano-Glo HiBiT Lytic Detection System from Promega, Cat #N3040. Compounds were transferred, 25 nL DMSO or test compounds (final DMSO @ 0.1%) to intermediate plates (Corning3570) using ECHO550. […] After briefly centrifugation (2000 rpm 1 mins), plate was read on Envision (Ultrasensitive luminescence model).

{"columns": ["compound", "study-system", "DC50"],
 "data": [
  ["Cc1ncsc1-c1ccc([C@H](C)NC(=O)[C@@H]2C[C@@H](O)CN2C(=O)[C@H](C(C)C)n2cc(C3CCC(CN4CCC(c5ccc6c(c5)C(C)(C)c5nc(=O)c7c(Cl)cccc7n5-6)CC4)CC3)nn2)cc1 (stereo partly drawn)", "SMARCA2 (Homo sapiens)", "< 100 nM"],
  ["Cc1ncsc1-c1ccc([C@H](C)NC(=O)[C@@H]2C[C@@H](O)CN2C(=O)[C@@H](c2cc(OCC3(CN4CCC(c5ccc6c(c5)C(C)(C)c5nc(=O)c7c(Cl)cccc7n5-6)CC4)CC3)no2)C(C)C)cc1", "SMARCA2 (Homo sapiens)", "< 100 nM"],
  ["C[C@H](NC(=O)[C@@H]1C[C@@H](O)CN1C(=O)[C@@H](n1cc(C2CCC(CN3CCN(c4ccc5c(c4)-n4c(nc(=O)c6c(Cl)cccc64)C54CCCCC4)CC3)CC2)nn1)C(C)(C)C)c1ccc(-c2scnc2C#CCN2CCOCC2)cc1 (stereo partly drawn)", "SMARCA2 (Homo sapiens)", "< 100 nM"],
  ["Cc1ncsc1-c1ccc([C@H](C)NC(=O)[C@@H]2C[C@@H](O)CN2C(=O)[C@@H](NC(=O)C2CCC(N3CCC(c4ccc5c(c4)-n4c(nc(=O)c6c(Cl)cccc64)C5(C)C)CC3)CC2)C(C)(C)C)cc1 (stereo partly drawn)", "SMARCA2 (Homo sapiens)", "100 to 500 nM"],
  ["Cc1ncsc1-c1ccc2c(c1)CC[C@@H]2NC(=O)[C@@H]1C[C@@H](O)CN1C(=O)[C@@H](n1cc([C@H]2CC[C@H](CN3CCC(c4ccc5c(c4)-n4c(nc(=O)c6c(Cl)cccc64)C5(C)C)CC3)CC2)nn1)C(C)(C)C", "SMARCA2 (Homo sapiens)", "< 100 nM"],
  ["Cc1ncsc1-c1ccc([C@H](CCCCCN2CCC(c3ccc4c(c3)C(C)(C)c3nc(=O)c5c(Cl)cccc5n3-4)CC2)NC(=O)[C@@H]2C[C@@H](O)CN2C(=O)[C@@H](NC(=O)C2(F)CC2)C(C)(C)C)cc1", "SMARCA2 (Homo sapiens)", "< 100 nM"],
  ["Cc1ncsc1-c1ccc([C@H](C)NC(=O)[C@@H]2C[C@@H](O)CN2C(=O)[C@@H](NC(=O)c2cccc(CN3CCC(c4ccc5c(c4)C(C)(C)c4nc(=O)c6c(Cl)cccc6n4-5)CC3)c2)C(C)(C)C)cc1", "SMARCA2 (Homo sapiens)", "< 100 nM"],
  ["Cc1ncsc1-c1ccc([C@H](CC(=O)NCCCN2CCC(c3ccc4c(c3)-n3c(nc(=O)c5c(Cl)cccc53)C4(C)C)CC2)NC(=O)[C@@H]2C[C@@H](O)CN2C(=O)[C@@H](NC(=O)C2(F)CC2)C(C)(C)C)cc1", "SMARCA2 (Homo sapiens)", "501 to 1000 nM"],
  ["Cc1ncsc1-c1ccc([C@H](C)NC(=O)[C@@H]2C[C@@H](O)CN2C(=O)[C@@H](n2cc(C34CC(C(=O)N5CCC(c6ccc7c(c6)-n6c(nc(=O)c8c(Cl)cccc86)C76CCCCC6)CC5)(C3)C4)nn2)C(C)(C)C)cc1", "SMARCA2 (Homo sapiens)", "< 100 nM"]
]}
